Test: Cytotoxicity in HepG2 cells (intracellular ATP, ATPlite, 48 h)
Assay type: cell-based, human
Details: human, HepG2 cells; IC50 per ratio column head; unit inferred; read-out: Cytotoxicity in HepG2
MEASUREMENT_KIND: IC50 at 48 h

Before answering, review these 2 worked examples.
Query: IC50 at 48 h; subject: CCN(CC)C(=NC(=N)Nc1ccc(Cl)cc1)NCCCCCCCCNC(=NC(=N)Nc1ccc(Cl)cc1)N(CC)CC [TCMDC-131812] > 25 µM

Same question, CCOc1ccc(-c2nonc2NC(=O)c2cccc(Cl)c2)cc1OCC [TCMDC-125200] this time > 25 µM

Now turn to the next compound.
Name the reported IC50 at 48 h value associated with the compound N=C(N=C(NCCCCCCNC(=NC(=N)NCc1ccc(Cl)c(Cl)c1)N1CCCCC1)N1CCCCC1)NCc1ccc(Cl)c(Cl)c1 [TCMDC-131816] > 25 µM
